# study_target: human CXCR4 receptor (Homo sapiens)
# Construct: expressed in transfected cells
# assay: Measurement of intracellular Ca+2 responses (FLIPR), antagonism of the SDF-1α response
# Type: cell-based
# condition_set: percent antagonism of SDF-1α 1.9 nM (EC65) response; HEK-Gqi5 human CXCR4 cells; value in brackets
readout_kind: CXCR4 (% Inh) (%)

compound	CXCR4 (% Inh) [%]
CNCC1CN(c2nc(NC3CCN(Cc4c(OC)cccc4N(C)C)CC3)c3ccccc3n2)C1	97
CCN(CC)CCCNc1nc(NC2CCN(Cc3c(OC)cccc3N(C)C)CC2)c2cc(OC)c(OC)cc2n1	98
COc1cc2nc(NCCc3nccs3)nc(NC3CCN(Cc4c(OCCN(C)C)cccc4N(C)C)CC3)c2cc1OC	92
COc1cc2nc(NCCO)nc(NC3CCN(Cc4c(OCCN(C)C)cccc4N(C)C)CC3)c2cc1OC	98
COc1cccc(N(C)C)c1CN1CCC(Nc2nc(N3CCCC(C(N)=O)C3)nc3ccccc23)CC1 (stereo not shown)	93
COc1cccc(N(C)C)c1CN1CCC(Nc2nc(NCC[C@H]3CCCN3C(=O)OC(C)(C)C)nc3ccccc23)CC1	83
COc1cccc(N(C)C)c1CN1CCC(Nc2nc(NCCCNC(=O)OC(C)(C)C)nc3ccccc23)CC1	88

----------
# study_target: human CXCR4 receptor (Homo sapiens)
# Construct: expressed in transfected cells
# assay: Measurement of intracellular Ca+2 responses (FLIPR), antagonism of the SDF-1α response
# Assay type: cell-based
# condition_set: HEK-Gqi5 cells stably expressing human CXCR4; Fluo-4 FLIPR; antagonism of SDF-1α 1.9 nM (EC65); values given in μM
readout_kind: IC50 (µM)

[P] CCN(CC)CCCNc1nc(NC2CCN(Cc3cccc4ccn(C)c34)CC2)c2ccccc2n1
[Q] COc1cccc(N(C)C)c1CN1CCC(Nc2nc(NCCCN3CCCC3=O)nc3ccccc23)CC1
[R] COc1cccc(N(C)C)c1CN1CCC(Nc2nc(N3CCN(C(C)=O)CC3)nc3ccccc23)CC1
[S] CCN(CC)CCCNc1nc(NC2CCN(Cc3ccccc3-n3ccnc3)CC2)c2ccccc2n1
Q: Place the items in sequence of falling IC50. Write the labels, ordered according to the request.
A: S, R, P, Q
(S: 6.6 µM, R: 3.5 µM, P: 2.2 µM, Q: 1.4 µM)

----------
# study_target: human CXCR4 receptor (Homo sapiens, UniProt P61073)
# Construct: expressed in transfected cells
# Sequence (P61073 whole entry): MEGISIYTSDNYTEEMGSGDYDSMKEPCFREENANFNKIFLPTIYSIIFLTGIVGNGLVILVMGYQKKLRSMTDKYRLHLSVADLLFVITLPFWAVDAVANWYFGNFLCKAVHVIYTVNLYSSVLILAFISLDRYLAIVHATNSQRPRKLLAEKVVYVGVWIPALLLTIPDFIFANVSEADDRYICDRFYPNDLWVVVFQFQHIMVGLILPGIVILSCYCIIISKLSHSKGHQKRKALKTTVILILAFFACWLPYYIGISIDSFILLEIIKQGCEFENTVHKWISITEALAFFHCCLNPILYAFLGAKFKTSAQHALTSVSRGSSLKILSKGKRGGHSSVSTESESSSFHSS
# assay: Measurement of intracellular Ca+2 responses (FLIPR), antagonism of the SDF-1α response
# Assay type: cell-based
# condition_set: HEK-Gqi5 cells stably expressing human CXCR4; Fluo-4 FLIPR; antagonism of SDF-1α 1.9 nM (EC65); values in nM
readout_kind: IC50 (nM)

// known answers, use as guide
molecule	study_target	IC50 (nM)
COc1cc2nc(NCC(O)CN)nc(NC3CCN(Cc4c(OCCN(C)C)cccc4N(C)C)CC3)c2cc1OC (stereo not shown)	human CXCR4 receptor (Homo sapiens, UniProt P61073)	38
COc1cccc(N(C)C)c1CN1CCC(Nc2nc(NCC[C@H]3CCCN3)nc3ccccc23)CC1	human CXCR4 receptor (Homo sapiens, UniProt P61073)	319
COc1cccc(N(C)C)c1CN1CCC(Nc2nc(NCCCNC(=O)OC(C)(C)C)nc3ccccc23)CC1	human CXCR4 receptor (Homo sapiens, UniProt P61073)	614

[A] COCCCNc1nc(NC2CCN(Cc3c(OC)cccc3N(C)C)CC2)c2ccccc2n1
[B] CCN(CC)CCNc1nc(NC2CCN(Cc3ccccc3N(C)C)CC2)c2cc(OC)c(OC)cc2n1
[C] CCN(CC)CCOc1cccc(N(C)C)c1CN1CCC(Nc2nc(NCCN(C)C)nc3cc(OC)c(OC)cc23)CC1
[D] CN(C)CCCNc1nc(NC2CCN(Cc3c(OCCN(C)C)cccc3N(C)C)CC2)c2ccccc2n1
Q: Could you please order the items by IC50, going from the lowest number to the highest? Write the labels, ordered according to the request.
A: C, D, B, A

----------
# study_target: human CXCR4 receptor (Homo sapiens)
# Construct: expressed in transfected cells
# assay: Measurement of intracellular Ca+2 responses (FLIPR), antagonism of the SDF-1α response
# Assay type: cell-based
# condition_set: percent antagonism of SDF-1α 1.9 nM (EC65) response; HEK-Gqi5 human CXCR4 cells; value in brackets
readout_kind: CXCR4 (% Inh) (%)

// known answers, use as guide
compound	experimental_result
CCN(CC)CCCCCNc1nc(NC2CCN(Cc3c(OC)cccc3N(C)C)CC2)c2ccccc2n1 [Compound 67]	88
COc1cc2nc(NCc3ncco3)nc(NC3CCN(Cc4c(OCCN(C)C)cccc4N(C)C)CC3)c2cc1OC [Compound 204]	92
COc1cccc(N(C)C)c1CN1CCC(Nc2nc(NCCCN3CCCC3=O)nc3ccccc23)CC1 [Compound 89]	92
COc1cc2nc(NCc3c[nH]cn3)nc(NC3CCN(Cc4c(OCCN(C)C)cccc4N(C)C)CC3)c2cc1OC [Compound 206]	96
CCN(CC)CCCNc1nc(NC2CCN(Cc3c(OC(C)C)cccc3N(C)C)CC2)c2cc(OC)c(OC)cc2n1 [Compound 139]	93
CCN(CC)CCCNc1nc(NC2CCN(Cc3ccccc3[N+](=O)[O-])CC2)c2cc(OC)c(OC)cc2n1 [Compound 65]	93

[P] COc1cc2nc(NCCCN(C)C)nc(NCCNCc3c(OC)cccc3N(C)C)c2cc1OC [Compound 178]
[Q] COc1cccc(N(C)C)c1CN1CCC(Nc2nc(NCC(C)(C)CN(C)C)nc3ccccc23)CC1 [Compound 96]
Q: Please choose the item with the lower CXCR4 (% Inh) value from this pair: P and Q Kindly give the label for the entry you pick.
A: P
(P: 49%, Q: 100%)

----------
# study_target: human CXCR4 receptor (Homo sapiens, UniProt P61073)
# Construct: expressed in transfected cells
# assay: Measurement of intracellular Ca+2 responses (FLIPR), antagonism of the SDF-1α response
# Type: cell-based
# condition_set: HEK-Gqi5 cells stably expressing human CXCR4; Fluo-4 FLIPR; antagonism of SDF-1α 1.9 nM (EC65); values given in μM
readout_kind: IC50 (µM)

compound	study_target	readout_kind	unit_info	experimental_result
CCCCNc1nc(NC2CCN(Cc3c(OC)cccc3N(C)C)CC2)c2ccccc2n1 [Compound 91]	human CXCR4 receptor (Homo sapiens, UniProt P61073)	IC50	µM	2

[I] COc1cccc(N(C)C)c1CN1CCC(Nc2nc(NCCCn3ccnc3)nc3ccccc23)CC1 [Compound 120]
[II] CNCC1CN(c2nc(NC3CCN(Cc4c(OC)cccc4N(C)C)CC3)c3ccccc3n2)C1 [Compound 104]
Q: Please choose the item with the lower IC50 value from this pair: I and II Kindly give the label for the entry you pick.
A: II

----------
# study_target: human CXCR4 receptor (Homo sapiens, UniProt P61073)
# Construct: expressed in transfected cells
# assay: Measurement of intracellular Ca+2 responses (FLIPR), antagonism of the SDF-1α response
# Type: cell-based
# condition_set: percent antagonism of SDF-1α 1.9 nM (EC65) response; HEK-Gqi5 human CXCR4 cells; value in brackets
readout_kind: CXCR4 (% Inh) (%)

COc1cc2nc(NCCc3ncc[nH]3)nc(NC3CCN(Cc4c(OCCN(C)C)cccc4N(C)C)CC3)c2cc1OC 97
COc1cccc(N(C)C)c1CN1CCC(Nc2nc(NCCCn3ccnc3)nc3ccccc23)CC1 95
COc1cccc(N(C)C)c1CN1CCC(Nc2nc(NC[C@H]3CCNC3)nc3ccccc23)CC1 98
CCN(CC)CCOc1cccc(N(C)C)c1CN1CCC(Nc2nc(NCCN(C)C)nc3cc(OC)c(OC)cc23)CC1 94
COc1cccc(N(C)C)c1CN1CCC(Nc2nc(NCCN)nc3ccccc23)CC1 97
CCN(CC)C(=O)CCNc1nc(NC2CCN(Cc3ccccc3N(C)C)CC2)c2cc(OC)c(OC)cc2n1 92
COc1cc2nc(SCCN(C)C)nc(NC3CCN(Cc4c(OCCN(C)C)cccc4N(C)C)CC3)c2cc1OC 96
COc1cccc(N(C)C)c1CN1CCC(Nc2nc(NC3CCN(C)CC3)nc3ccccc23)CC1 96
COc1cccc(N(C)C)c1CN1CCC(Nc2nc(NCCN3CCN(C)CC3)nc3ccccc23)CC1 97

----------
# study_target: human CXCR4 receptor (Homo sapiens, UniProt P61073)
# Construct: expressed in transfected cells
# assay: Measurement of intracellular Ca+2 responses (FLIPR), antagonism of the SDF-1α response
# Format: cell-based
# condition_set: percent antagonism of SDF-1α 1.9 nM (EC65) response; HEK-Gqi5 human CXCR4 cells; value in brackets
readout_kind: CXCR4 (% Inh) (%)

compound	experimental_result
COc1cccc(N(C)C)c1CN1CCC(Nc2nc(NCC3CCN(C)C3)nc3ccccc23)CC1 (stereo not drawn)	97
COc1cccc(N(C)C)c1CN1CCC(Nc2nc(NCCNC(C)=O)nc3ccccc23)CC1	97
CCN(CC)CCNc1nc(NC2CCN(Cc3c(OC)cccc3N(C)C)CC2)c2cc(OC)c(OC)cc2n1	100
COc1cc2nc(NCCCN3CCCC3)nc(NC3CCN(Cc4ccccc4N(C)C)CC3)c2cc1OC	93
COc1cc2nc(NCCN(C)C)nc(NC3CCN(Cc4c(OCCN(C)C)cccc4N(C)C)CC3)c2cc1OC	96
COc1cc2nc(NC[C@@H]3CCNC3)nc(NC3CCN(Cc4c(OCCN(C)C)cccc4N(C)C)CC3)c2cc1OC	96
COc1cccc(N(C)C)c1CN1CCC(Nc2nc(NCCCN)nc3ccccc23)CC1	94
CNCCCCNc1nc(NC2CCN(Cc3c(OC)cccc3N(C)C)CC2)c2ccccc2n1	97
COc1cc2nc(NCCN(C)C)nc(NC3CCN(Cc4c(OCCN5CCCC5)cccc4N(C)C)CC3)c2cc1OC	95
CCN(CC)CCCNc1nc(NC2CCN(Cc3cccc4ccn(C)c34)CC2)c2ccccc2n1	63
COc1cc2nc(NCc3cc[nH]n3)nc(NC3CCN(Cc4c(OCCN(C)C)cccc4N(C)C)CC3)c2cc1OC	100
CCOP(=O)(CCCNc1nc(NC2CCN(Cc3c(OC)cccc3N(C)C)CC2)c2ccccc2n1)OCC	99
COc1cc2nc(NCC(O)CN)nc(NC3CCN(Cc4c(OCCN(C)C)cccc4N(C)C)CC3)c2cc1OC (stereo not drawn)	95
COc1cccc(N(C)C)c1CN1CCC(Nc2nc(N3CC(CN(C)C(=O)OC(C)(C)C)C3)nc3ccccc23)CC1	82
CN(C)CCCNc1nc(NC2CCN(Cc3c(OCCN(C)C)cccc3N(C)C)CC2)c2ccccc2n1	98
COc1cccc(N(C)C)c1CN1CCC(Nc2nc(NC[C@@H]3CCNC3)nc3ccccc23)CC1	99
COc1cccc(N(C)C)c1CN1CCC(Nc2nc(NCCC#N)nc3ccccc23)CC1	100
COc1cccc(N(C)C)c1CN1CCC(Nc2nc(N3CCN(C(C)=O)CC3)nc3ccccc23)CC1	86
COc1cc2nc(NCCCO)nc(NC3CCN(Cc4c(OCCN(C)C)cccc4N(C)C)CC3)c2cc1OC	99
COc1cc2nc(NCCCN)nc(NC3CCN(Cc4c(OCCN(C)C)cccc4N(C)C)CC3)c2cc1OC	94
COc1cccc(N(C)C)c1CN1CCC(Nc2nc(NCC3CCCO3)nc3ccccc23)CC1 (stereo not drawn)	98
CCN1CCC(CNc2nc(NC3CCN(Cc4c(OC)cccc4N(C)C)CC3)c3ccccc3n2)C1 (stereo not drawn)	96
COc1cccc(N(C)C)c1CN1CCCC(Nc2nc(NCCCN(C)C)nc3ccccc23)CC1 (stereo not drawn)	97
CCCCNc1nc(NC2CCN(Cc3c(OC)cccc3N(C)C)CC2)c2ccccc2n1	80

These measurements were taken from patent US8193203B2.
